- systemName: Serine/threonine-protein kinase PLK1 (Homo sapiens)
- Sequence (P53350 whole entry): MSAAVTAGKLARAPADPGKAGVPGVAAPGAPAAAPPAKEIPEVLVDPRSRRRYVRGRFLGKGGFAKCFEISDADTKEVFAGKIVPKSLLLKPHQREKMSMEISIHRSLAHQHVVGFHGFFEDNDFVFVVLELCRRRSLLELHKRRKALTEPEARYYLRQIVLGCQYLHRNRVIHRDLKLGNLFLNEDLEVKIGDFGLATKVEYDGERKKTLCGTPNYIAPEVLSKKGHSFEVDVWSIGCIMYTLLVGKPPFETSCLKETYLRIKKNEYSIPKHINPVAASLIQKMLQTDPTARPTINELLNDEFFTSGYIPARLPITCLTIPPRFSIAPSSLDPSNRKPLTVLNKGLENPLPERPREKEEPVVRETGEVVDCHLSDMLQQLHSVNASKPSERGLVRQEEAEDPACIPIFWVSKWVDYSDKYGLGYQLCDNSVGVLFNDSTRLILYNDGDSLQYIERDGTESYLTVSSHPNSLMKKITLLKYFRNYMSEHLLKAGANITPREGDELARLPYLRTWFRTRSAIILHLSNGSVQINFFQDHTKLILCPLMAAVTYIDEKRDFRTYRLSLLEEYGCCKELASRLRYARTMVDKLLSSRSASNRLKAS
- assayNotes: Inhibition of GST-tagged recombinant PLK1 after 20 mins by autoradiography
pIC50: −log10 of the molar value.
observable: pIC50

Need pIC50, item O=C(O)c1ccc(C(=O)/C(=C\c2ccc(F)c([N+](=O)[O-])c2)SCc2ccc(Br)cc2)cc1 < 4.30

====

- Test system: DU-145
- assayNotes: Growth inhibition of human DU145 cells after 96 hrs by trypan blue exclusion assay
- Format: functional
- conditionInfo: DU-145, 96 h
observable: log10 GI50 (log10 of the value in µM)
Use the decimal logarithm of GI50 (µM).

Return log10 GI50 measured with DU-145 given this compound: O=C(/C(=C\c1ccc(O)c([N+](=O)[O-])c1)Sc1c(F)c(F)c(F)c(F)c1F)c1ccc(Br)cc1 1.00

Return log10 GI50 measured with DU-145 given this compound: O=C(/C(=C\c1ccc(OCc2ccccc2)cc1)SCc1ccc(Cl)cc1Cl)c1ccc(Cl)cc1 0.00

Return log10 GI50 measured with DU-145 given this compound: COc1ccc(S/C(=C/c2ccc(Cl)cc2Cl)C(=O)c2ccc(Br)cc2)cc1 0.00

Return log10 GI50 measured with DU-145 given this compound: Cc1ccc(CS/C(=C/c2ccc(Cl)cc2)C(=O)c2ccc(Cl)cc2)cc1 1.00

Return log10 GI50 measured with DU-145 given this compound: CN(C)c1ccc(/C=C(/SCc2ccc(Br)cc2)C(=O)c2ccc(C(=O)O)cc2)cc1 1.70

Return log10 GI50 measured with DU-145 given this compound: O=C(/C(=C\c1cc(I)c(O)c(I)c1)SCc1ccc(Br)cc1)c1ccc(Br)cc1 0.00

Return log10 GI50 measured with DU-145 given this compound: O=C(O)c1ccc(C(=O)/C(=C\c2ccccc2F)SCc2ccc(Br)cc2)cc1 1.00

Return log10 GI50 measured with DU-145 given this compound: COc1ccc(/C=C(/Sc2ccccc2Cl)C(=O)c2ccc(Cl)cc2)c(OC)c1OC 1.00

Return log10 GI50 measured with DU-145 given this compound: CN(C)c1ccc(/C=C(/SCc2ccc(Cl)cc2)C(=O)c2ccc(C(=O)O)cc2)cc1 0.00

Return log10 GI50 measured with DU-145 given this compound: COc1ccc(/C=C(\C(=O)c2ccc(Br)cc2)S(=O)(=O)Cc2ccc(Cl)cc2)cc1 1.40

Return log10 GI50 measured with DU-145 given this compound: COc1cc(OC)c(/C=C(/SCc2ccc(Cl)cc2)C(=O)c2ccc(Br)cc2)c(OC)c1 0.00

Return log10 GI50 measured with DU-145 given this compound: CN(C)c1ccc(/C=C(/SCc2ccc(F)cc2)C(=O)c2ccc(Cl)cc2)cc1 1.70

Return log10 GI50 measured with DU-145 given this compound: O=C(/C(=C\c1ccc(F)cc1F)Sc1ccc(Br)cc1)c1ccc(Cl)cc1 0.00

Return log10 GI50 measured with DU-145 given this compound: Cc1ccc(S(=O)(=O)/C(=C/c2ccc(C)s2)C(=O)c2ccc(Br)cc2)cc1 1.40

Return log10 GI50 measured with DU-145 given this compound: O=C(/C(=C\c1c[nH]c2ccccc12)Sc1ccc(Br)cc1)c1ccc(Br)cc1 0.00

Return log10 GI50 measured with DU-145 given this compound: O=C(O)c1ccc(C(=O)/C(=C\c2ccc(Br)c([N+](=O)[O-])c2)SCc2ccc(Cl)cc2Cl)cc1 0.00

Return log10 GI50 measured with DU-145 given this compound: COc1ccc(S/C(=C/c2ccc(Br)cc2)C(=O)c2ccc(Br)cc2)cc1 1.30
